# targetOfAssay: p-AXL (Homo sapiens)
# Sequence (P30530 26-894): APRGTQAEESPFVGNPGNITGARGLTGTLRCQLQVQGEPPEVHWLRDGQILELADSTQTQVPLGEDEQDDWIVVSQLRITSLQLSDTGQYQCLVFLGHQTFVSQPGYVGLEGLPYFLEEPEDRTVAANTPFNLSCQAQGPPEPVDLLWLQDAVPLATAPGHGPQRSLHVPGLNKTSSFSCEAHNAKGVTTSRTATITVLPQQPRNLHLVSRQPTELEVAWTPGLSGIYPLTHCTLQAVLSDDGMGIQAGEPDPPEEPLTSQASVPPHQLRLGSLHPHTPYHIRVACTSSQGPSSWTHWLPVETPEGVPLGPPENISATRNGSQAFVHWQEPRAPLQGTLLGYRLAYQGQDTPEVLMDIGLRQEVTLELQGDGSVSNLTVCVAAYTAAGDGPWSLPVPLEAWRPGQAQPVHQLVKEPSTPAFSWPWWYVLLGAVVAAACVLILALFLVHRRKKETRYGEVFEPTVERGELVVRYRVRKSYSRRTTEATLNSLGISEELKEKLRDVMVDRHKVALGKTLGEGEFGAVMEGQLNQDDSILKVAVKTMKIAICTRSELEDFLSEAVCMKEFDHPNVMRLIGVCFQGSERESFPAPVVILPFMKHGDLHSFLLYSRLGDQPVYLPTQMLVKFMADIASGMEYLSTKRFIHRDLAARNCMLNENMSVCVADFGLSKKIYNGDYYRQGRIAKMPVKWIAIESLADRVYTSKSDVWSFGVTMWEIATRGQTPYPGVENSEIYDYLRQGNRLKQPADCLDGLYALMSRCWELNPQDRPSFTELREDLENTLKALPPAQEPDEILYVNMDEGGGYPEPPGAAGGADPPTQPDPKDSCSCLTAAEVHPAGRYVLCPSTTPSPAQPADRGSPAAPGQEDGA
# measurementProtocol: Axl phosphorylation inhibition ELISA in HEK293T cells transfected with NanoLuc-tagged AXL
# conditionContext: 1 h compound incubation, media (OptiMEM)
pIC50: −log10 of the molar value.
testReadout: pIC50

Quick request: pIC50 for each listed item, please.
1. Cc1cccnc1-n1cc(-c2n[nH]c3ncc(-c4ccc5c(c4)CC[C@@H](N4C6COCC4C6)CC5)cc23)cn1
2. Cc1ccnnc1-c1ccc(-c2n[nH]c3ncc(-c4ccc5c(c4)CC[C@@H](N4C6COCC4C6)CC5)cc23)cc1
3. COc1cccnc1-c1ccc(-c2n[nH]c3ncc(-c4ccc5c(c4)CC[C@@H](N4C6COCC4C6)CC5)cc23)cc1
4. COc1ccnc(-c2ccc(-c3n[nH]c4ncc(-c5ccc6c(c5)CC[C@@H](N5C7COCC5C7)CC6)cc34)cc2)c1OC
5. Cc1ccc(C)c(-c2ccc(-c3n[nH]c4ncc(-c5ccc6c(c5)CC[C@@H](N5CCCC5)CC6)cc34)cc2)n1
6. CS(=O)(=O)c1cccnc1-c1ccc(-c2c[nH]c3ncc(-c4ccc5c(c4)CC[C@@H](N4C6COCC4C6)CC5)cc23)cc1
7. Cc1ccc(C)c(-c2ccc(-c3c[nH]c4ncc(-c5ccc6c(c5)CC[C@@H](N5C7COC[C@H]5C7)CC6)cc34)nc2)n1
8. CN(C)S(=O)(=O)c1cccnc1-c1ccc(-c2c[nH]c3ncc(-c4ccc5c(c4)CC[C@@H](N4C6COCC4C6)CC5)cc23)cc1

-- reply
> 7.00
> 7.00
> 7.00
> 7.00
> 7.00
> 7.00
> 7.00
> 7.00

Sourced from patent US12195482B1
